// provenance: patent US20260069689A1

Listing of recorded pIC50 by entry.
MEASURED TARGET: SARS-CoV-2 RBD.mmh (Spike amino acids Arg319-Phe541 with C-terminal myc-myc-6-Histidine tag) (SARS-CoV-2, UniProt P0DTC2 319-541)
Give only the number. pIC50 is defined as minus log10 of concentration in molar units.

Entry under review: mAb14247 (antibody, V domains shown) VH: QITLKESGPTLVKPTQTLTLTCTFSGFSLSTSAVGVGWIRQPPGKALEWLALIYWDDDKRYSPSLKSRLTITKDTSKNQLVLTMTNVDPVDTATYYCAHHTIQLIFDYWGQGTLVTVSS VL: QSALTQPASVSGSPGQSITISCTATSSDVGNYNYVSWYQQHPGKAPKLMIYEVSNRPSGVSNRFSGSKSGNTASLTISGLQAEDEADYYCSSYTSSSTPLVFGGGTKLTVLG . Reported pIC50?
9.35

Entry under review: mAb14230 (antibody, V domains shown) VH: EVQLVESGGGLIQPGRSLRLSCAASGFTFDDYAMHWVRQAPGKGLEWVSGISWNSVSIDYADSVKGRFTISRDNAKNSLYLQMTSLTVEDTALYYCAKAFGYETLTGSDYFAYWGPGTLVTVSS VL: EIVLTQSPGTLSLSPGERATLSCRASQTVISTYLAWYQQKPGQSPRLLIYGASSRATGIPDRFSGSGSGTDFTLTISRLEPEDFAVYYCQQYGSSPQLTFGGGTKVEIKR . Reported pIC50?
8.00
